The reported measurements were obtained from the supplement of paper PMC10567573.

Would you mind telling me the reported protein stability index of each entry?
B1: SPATS1 (parent)
chain: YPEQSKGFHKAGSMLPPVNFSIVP

# Variants of: B1
# Protocol description: protein stability index of a GFP-peptide fusion (GPS, HEK-293T) (PSI 1-6); higher = more stable;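 also: lentivirally expressed fusions sorted by FACS into six bins by GFP to DsRed ratio, PSI derived from sequencing read proportions per bin multiplied by bin number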
# Test conditions: c terminus: a fixed tail appended
The response must contain the number and no unit.

For `E3W` the variant record lists protein stability index as 2.01

For `P24R` the variant record lists protein stability index as 1.82

For `S21H` the variant record lists protein stability index as 1.49

For `G12Y` the variant record lists protein stability index as 2.64

For `P2V` the variant record lists protein stability index as 2.62

For `L15T` the variant record lists protein stability index as 2.16

For `G12I` the variant record lists protein stability index as 1.49

For `N19P` the variant record lists protein stability index as 1.88

For `S13R` the variant record lists protein stability index as 2.15

For `N19L` the variant record lists protein stability index as 2.24

For `Q4D` the variant record lists protein stability index as 2.71

For `V18K` the variant record lists protein stability index as 2.06

For `F8T` the variant record lists protein stability index as 3.18

For `Q4M` the variant record lists protein stability index as 1.39

For `K10Y` the variant record lists protein stability index as 2.15

For `V18P` the variant record lists protein stability index as 2.19

For `P2Q` the variant record lists protein stability index as 2.51

For `L15G` the variant record lists protein stability index as 1.58

For `G7C` the variant record lists protein stability index as 1.94
